target: IscU-IscS complex (E. coli, UniProt P0A6B7;P0ACD4, biotin (site not stated))
Sequence (P0A6B7 whole entry, chain 1 of 2): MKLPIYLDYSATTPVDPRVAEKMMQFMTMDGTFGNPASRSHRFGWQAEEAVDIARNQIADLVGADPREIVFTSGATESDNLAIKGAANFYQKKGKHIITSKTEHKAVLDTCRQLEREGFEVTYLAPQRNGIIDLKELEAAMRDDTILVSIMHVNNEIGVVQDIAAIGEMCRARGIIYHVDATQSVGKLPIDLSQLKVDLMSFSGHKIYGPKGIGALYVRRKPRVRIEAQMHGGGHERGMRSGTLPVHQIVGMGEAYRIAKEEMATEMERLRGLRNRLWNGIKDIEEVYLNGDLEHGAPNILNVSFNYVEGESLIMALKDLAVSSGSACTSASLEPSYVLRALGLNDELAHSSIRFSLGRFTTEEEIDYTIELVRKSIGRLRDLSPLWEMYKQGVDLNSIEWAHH
Sequence (P0ACD4 2-128, chain 2 of 2): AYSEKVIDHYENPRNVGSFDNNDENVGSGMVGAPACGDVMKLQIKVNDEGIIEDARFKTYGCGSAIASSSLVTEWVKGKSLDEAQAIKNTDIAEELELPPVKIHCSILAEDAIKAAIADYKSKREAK
experimentNotes: BLI
measurementLabel: Kd (µM)

binder | measurementLabel | resultValue
IscX (natural protein, most likely a mixed disulfide with beta-mercaptoethanol (+76 Da) on the majority of the protein) MGLKWTDSREIGEALYDAYPDLDPKTVRFTDMHQWICDLEDFDDDPQASNEKILEAILLVWLDEAE | Kd | 8
